Recorded melting point, one value per entry.
Measured property: melting point

| Compound | Measured property | Data value |
| --- | --- | --- |
| CONC(=O)Nc1ccc(-c2sc3c(c2CN(C)C(C)c2ccccn2)c(=O)n(-c2ccccc2)c(=O)n3Cc2c(F)cccc2F)cc1 (configuration not stated) | melting point | 146 to 148 °C |
| COC(=O)CN(CC(=O)OC)S(=O)(=O)c1ccc(C)cc1 | melting point | 99 to 100 °C |
| Cc1ccc(C(=O)NNC(=O)c2ccccc2Cl)cc1 | melting point | 204 to 206 °C |
| O=C(NCc1ccccc1)c1ccnc(N2CCN(CC3CC3)C2=O)c1 | melting point | 121 to 123 °C |
| CN(CC(=O)O)S(=O)(=O)c1ccc(-c2ccc(NC(=O)c3cc4ccccc4o3)cc2)cc1 | melting point | 226 to 228 °C |
| CCn1c(C)nc2cc(S(C)(=O)=O)c(Cl)c(N)c21 | melting point | 179 to 186 °C |
| COC1=C(OC)C(=O)C(CCCCCCCCCCCCC(=O)O)=C(C)C1=O | melting point | 62 °C |
| COC(=O)C(C#N)=Cc1cccs1 | melting point | 104 to 106 °C |
| COc1ccc2c(c1)CCC1C2CCC2(C)C1CCC2N(C)CCCO (configuration not stated) | melting point | 122 to 124 °C |
| O=c1[nH]c2cc(Cl)ccc2c(O)c1-c1cccc(F)c1 | melting point | > 350 °C |
| COc1cc2c(CC#N)c[nH]c2cc1F | melting point | 97 to 98 °C |
| CNc1c(OCCN(Cc2ccccc2)C(=O)OC(C)(C)C)cccc1[N+](=O)[O-] | melting point | 91 to 93 °C |
| COc1cc2c3c(sc2c(Cl)c1Cl)CCCC3 | melting point | 123 to 125 °C |
| CSC(C(N)=O)c1cc(Cl)cc(C(=O)c2ccccc2)c1N (configuration not stated) | melting point | 174 °C |
| CC(C)c1ccccc1N1/C(=N\N=C/c2ccc(-c3ncn(-c4ccc(OC(F)(F)F)cc4)n3)cc2)SCC1C (configuration not stated) | melting point | 201 to 204 °C |
| CC(C(=O)O)c1ccc([N+](=O)[O-])c(F)c1 (configuration not stated) | melting point | 74 to 77 °C |
| COC=C(C(=O)OC)c1csc2ccc(COc3ccccc3)cc12 | melting point | 130 °C |
| CCc1oc2ccccc2c1C(=O)NCc1ccc2c(Br)c(OCC#N)ccc2c1 | melting point | 181 to 183 °C |
| Cc1oc(-c2ccccc2)nc1COc1ccc(C(=O)c2ccccc2OCC(=O)O)cc1 | melting point | 174 to 175 °C |
| Cc1nn(-c2ccc3cc(-c4ccc(C(=O)Cl)cc4)oc3c2)nc1-c1ccccc1 | melting point | 275 °C |
| CCCCc1nc(S(=O)(=O)c2ccc(OC)cc2)c(C(=O)O)n1Cc1cc2c(cc1Cl)OCO2 | melting point | 154 °C |
| CN(C)SN(C)C(=O)ON=C1SCC(=O)NC1(C)C | melting point | 165 to 167 °C |
| COCOCCCOn1cnc2cnc(N)nc21 | melting point | 80 to 81 °C |
| Cc1cccc(N(C)c2n[nH]c3ncnc(Nc4cccc(Cl)c4)c23)n1 | melting point | 231 to 233 °C |
| Cc1ccc(N)c(C(=O)NCC(C)Cn2ccnc2)c1 (configuration not stated) | melting point | 120 to 122 °C |
| COc1cc2c(cc1Nc1ncc(Cl)c(Nc3ccc(N4CCOCC4)cc3OC)n1)CCN(C[C@H](O)C(F)(F)F)CC2 | melting point | 95 to 102 °C |
| CON1CCC2(CC1)OC(=O)C(c1cc(C)c(C)cc1C)=C2O | melting point | 199 to 204 °C |
| CC(C)CC(=O)N1CCC(NC(=O)c2ccccc2Oc2ccc(Cl)cc2Cl)CC1 | melting point | 57 to 60 °C |
| N#Cc1ccc(NCc2cc3c(cc2O)CCCO3)cc1 | melting point | 162 to 164 °C |
| CC1CCc2cc(F)cc3c(=O)c(C(=O)NN)cn1c23 (configuration not stated) | melting point | 236 to 238 °C |
| CCCCCCCCCCCCc1cc(O)ccc1S | melting point | 75 to 76 °C |
| CC(C)(CO)NC(=O)c1nn(-c2ccc(Cl)cc2)c2c1C1CCC2C1 (configuration not stated) | melting point | 167 to 169 °C |
| CC(C)(C)Oc1cccc(C[C@@H](C(=O)O)[C@@H](O)c2ccc(F)cc2)c1 (racemic) | melting point | 131 to 132 °C |
| O=C1OC(C(O)CO)CCN1Cc1ccccc1 (configuration not stated) | melting point | 100 to 102 °C |
| O=C(O)c1ccc2c(c1)CN(C(=O)OCc1ccccc1)C2 | melting point | 197 to 199 °C |
| O=C1Nc2ccccc2N(C(=O)CN2CCOCC2)c2ncncc21 | melting point | 240 to 242 °C |
| Cc1ccc2nc(C)c(C(=O)NNC(=O)CCl)n2c1 | melting point | 290 to 291 °C |
| CN1CCC[C@@H]1Cc1c[nH]c2ccc(C=CC(C)(C)O)cc12 | melting point | 155 to 158 °C |
| Cc1cnc2c3c(nccc13)C(=O)c1ccccc1-2 | melting point | 208 to 210 °C |
| COc1ccc(/C=C/C(=O)N2CCc3ccccc32)cc1OC | melting point | 118 to 120 °C |
| Cc1ccc(C(=O)CO)cc1 | melting point | 83 to 87 °C |
| O=C(c1cccc(Cc2ccc(=O)[nH]n2)c1)c1c(Cl)cc(Cl)cc1Cl | melting point | 149 to 151 °C |

All values here come from a melting point compilation (Tetko et al.; mined from patent text by program, amines drawn as free bases though some values may be those of a salt).
